Values were extracted from patent US20220025029A1.

assay_target: T1, natural Fel d1 (Indoor Biotech, #NA-FD1-2) (cat, UniProt P30438 23-92; P30440 18-109)
T1 construct: Bought natural heterodimeric glycoprotein, chains linked by disulfide bonds; also called nFel d1; nFel d 1
T1 sequence (P30438 other isoform, or with tags, fused parts or gaps, chain 1 of 2): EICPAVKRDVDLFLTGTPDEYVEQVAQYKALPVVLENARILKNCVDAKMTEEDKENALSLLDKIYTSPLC
T1 sequence (P30440 18-109, chain 2 of 2): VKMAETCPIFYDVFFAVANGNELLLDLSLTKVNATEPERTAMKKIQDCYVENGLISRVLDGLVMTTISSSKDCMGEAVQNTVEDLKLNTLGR
method_summary: SPR (Biacore), mAb captured, natural Fel d1 injected, 25 C;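 further: rate constants obtained by fitting association and dissociation phases to a one-to-one binding model, with Kd and half-life derived from those rate constants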

[
  {
    "binder": "H4H2607B (antibody, human IgG4, V domains shown, human IgG4 Fc (H4H prefix)) VH: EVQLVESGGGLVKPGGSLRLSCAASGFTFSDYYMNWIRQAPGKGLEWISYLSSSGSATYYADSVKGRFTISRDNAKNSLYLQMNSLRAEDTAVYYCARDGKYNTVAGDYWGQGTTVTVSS VL: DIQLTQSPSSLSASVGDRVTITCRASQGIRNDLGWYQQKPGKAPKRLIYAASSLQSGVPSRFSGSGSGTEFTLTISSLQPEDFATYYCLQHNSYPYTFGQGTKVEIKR",
    "kon": "2.97e+06 M⁻¹ s⁻¹"
  },
  {
    "binder": "H2M1237N (antibody, mouse IgG2, V domains shown, chimeric: human variable domains, mouse IgG2 Fc (H2M prefix)) VH: QVVLVESGGGVVQPGRSLRLSCAASGFTFSSYGMHWVRQAPGKGLEWVAVIWYDGSIKYYADSVKGRFTISRDNSNNTIYLQMNSLRAEDTAVYYCARALIPVAGTDPIFGYWGQGTLVTVSS VL: DIQMTQSPSTLSASVGDRVTITCRASQSVSSWLAWYQQKPGKAPKLLIFKTSGLESGVPFRFSGSGSGTEFTLTISSLQPDDFATYYCQQYNTYSPTFGQGTKVEIK",
    "kon": "281000 M⁻¹ s⁻¹"
  },
  {
    "binder": "H4H2864P (antibody, human IgG4, V domains shown, human IgG4 Fc (H4H prefix)) VH: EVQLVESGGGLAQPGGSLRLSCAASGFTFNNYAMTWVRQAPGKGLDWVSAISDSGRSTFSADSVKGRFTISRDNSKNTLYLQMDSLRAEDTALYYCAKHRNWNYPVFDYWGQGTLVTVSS VL: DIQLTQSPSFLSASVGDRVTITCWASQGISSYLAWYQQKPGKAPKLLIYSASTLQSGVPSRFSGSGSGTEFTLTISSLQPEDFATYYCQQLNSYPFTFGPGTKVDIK",
    "kon": "1.68e+06 M⁻¹ s⁻¹"
  },
  {
    "binder": "H1M1241N (antibody, V domains shown, chimeric: human variable domains, mouse constant domains (H1M prefix, mouse Fc)) VH: EVQLVESGGGLVKPGGSLRLSCAASGFTFSSYSMNWVRQAPGKGLEWVSSISSRSSYIYYADSVKGRFTISRDNAKNSLYLQMNSLRAEDTAVYYCARDHIVVVPGASYYYYGMDVWGQGTTVTVSS VL: DIQMTQSPSSLSASVGDRVTITCRASQGIRNDLGWYQQKPGKAPKRLISAASSLQSGVPSRFSGSGSGTEFTLTISSLQPEDFATYYCLQHNSYPLTFGGGTKVEIK",
    "kon": "182000 M⁻¹ s⁻¹"
  }
]
